Values were extracted from PubChem BioAssay AID651593.

- protocol: qHTS of Nrf2 Activators: Hit Validation in Primary Assay; note: potency is the fitted concentration of half-maximal effect; nearly all actives have a fitted effect of over 70% in size
- condition-details: Nrf2/ARE reporter cell assay; activation; series mostly up to 46.1 µM
About 860 (78%) of roughly 1,100 compounds were called active. About 19% were inconclusive and are not listed. So high a share suggests a set chosen from earlier hits. The list shows a part of the results.
property: Potency

Some solved cases for reference:
- smiles: "c1coc(CSc2ncnc3c2oc2ccccc23)c1"
  reading: "2.91 µM (active)"
- smiles: "Nc1nc(Nc2ccccc2F)nc(NCc2ccco2)c1[N+](=O)[O-]"
  reading: "2.31 µM (active)"
- smiles: "O=C(Nc1ccccc1C(=O)N/N=C/c1ccco1)c1ccc(F)cc1"
  reading: "2.31 µM (active)"
- smiles: "COc1cccc(C(=O)Nc2cc(Cl)c(O)c(Cl)c2)c1"
  reading: "5.17 µM (active)"
- smiles: "COC(=O)c1sccc1NC(=O)c1ccc(OC)c(OC)c1"
  reading: "4.61 µM (active)"

Would you mind listing Potency for each of the following molecules?
1. O=c1[nH]c(/C=C/c2ccccc2[N+](=O)[O-])nc2ccccc12
2. C=CCn1c(=NC(=O)c2cc(Cl)sc2Cl)sc2cc(S(N)(=O)=O)ccc21
3. Clc1ccccc1NN=Cc1ccccn1

1. 0.411 µM (active)
2. 2.31 µM (active)
3. 5.8 µM (active)

* * *

Hi there, I'd appreciate the recorded Potency for every entry that follows.
- protocol: qHTS of Nrf2 Activators: Hit Validation in Primary Assay; note: potency is the fitted concentration of half-maximal effect; nearly all actives have a fitted effect of over 70% in size
- condition-details: Nrf2/ARE reporter cell assay; activation; series mostly up to 46.1 µM
Screen size: about 1,100 compounds; about 860 (78%) were called active. Another 19% or so got no clear call; they are omitted. So high a share suggests a set chosen from earlier hits. The list shows a part of the results.

Some solved cases for reference:
- smiles: "O=C(N/N=C\\c1ccco1)Nc1cccc(Cl)c1"
  Potency: "2.31 µM (active)"
- smiles: "S=C(NCc1ccco1)Nc1ccccn1"
  Potency: "9.2 µM (active)"
- smiles: "O=C(NC(=S)Nc1nc(-c2ccccc2)cs1)c1cccs1"
  Potency: "3.66 µM (active)"

Would you mind listing Potency for each of the following compounds?
1. Cn1c(=O)n(CCc2ccccc2)c(=O)c2c1nc1n2CCN1Cc1ccco1
2. Cc1ccc2cccc(NC(=S)NC(=O)c3ccccc3)c2n1
3. Cc1csc(NC(=S)NC(=O)c2ccccc2)n1
4. O=c1nc2c(-c3ccccc3F)n[nH]n2c2ccccc12
5. Cc1nn(C)c(C)c1/C=C(/C(=O)C(C)(C)C)n1cncn1

["2.31 µM (active)", "4.61 µM (active)", "11.6 µM (active)", "2.59 µM (active)", "11.6 µM (active)"]

* * *

Hi there, I'd appreciate the recorded Potency for every entry that follows.
- protocol: qHTS of Nrf2 Activators: Hit Validation in Primary Assay; note: potency is the fitted concentration of half-maximal effect; nearly all actives have a fitted effect of over 70% in size
- condition-details: Nrf2/ARE reporter cell assay; activation; series mostly up to 46.1 µM
Screen size: about 1,100 compounds; about 860 (78%) were called active. Roughly 19% stayed inconclusive and do not appear here. So high a share suggests a set chosen from earlier hits. This is one part of the list.

Some solved cases for reference:
- smiles: "COC(=O)c1sccc1NC(=O)c1cccc(Cl)c1"
  Potency: "20.6 µM (active)"
- smiles: "O=C(CSc1nnc2c(n1)[nH]c1ccccc12)NCc1ccco1"
  Potency: "20.6 µM (active)"
- smiles: "C/C(=N\\Nc1ccc2nncn2n1)c1ccc(Cl)s1"
  Potency: "3.66 µM (active)"

Would you mind listing Potency for each of the following compounds?
1. CS(=O)(=O)Nc1ccc(C(=O)Nc2cccc([N+](=O)[O-])c2)cc1
2. Brc1ccccc1/C=N/Nc1ccccn1

1: 7.31 µM (active); 2: 6.51 µM (active)
